# assay_target: T1, human 5T4 oncofoetal antigen (human, UniProt Q13641 32-420)
# T1 construct: whole, on cells; also called hu 5T4; human 5T4 antigen
# T1 sequence (looked up): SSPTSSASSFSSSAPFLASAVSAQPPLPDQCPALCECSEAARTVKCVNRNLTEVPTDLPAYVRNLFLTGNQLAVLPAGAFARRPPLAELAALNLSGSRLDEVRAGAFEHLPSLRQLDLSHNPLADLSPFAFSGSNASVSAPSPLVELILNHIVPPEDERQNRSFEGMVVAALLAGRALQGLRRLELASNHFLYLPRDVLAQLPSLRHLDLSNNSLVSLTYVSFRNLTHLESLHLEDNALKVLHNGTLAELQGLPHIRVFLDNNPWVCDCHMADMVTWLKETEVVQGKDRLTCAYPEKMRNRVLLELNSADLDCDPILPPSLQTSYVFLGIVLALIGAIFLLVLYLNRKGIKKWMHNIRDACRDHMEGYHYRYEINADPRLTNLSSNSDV
# test_protocol: flow cytometry, PA-1 cells
observable: EC50
Show the value, then the unit it is measured in.

chimeric anti-5T4 monoclonal antibody 825 (antibody, human IgG1, V domains shown, also called clone 825) VH: QSVEESGGRLVTPGTPLTLTCTVSGIDLSSYGMGWVRQAPGKGLEYIGIISRNSVTYYATWAKGRFTISKTSTTVDLKMTSPTTEDTATYFCARRATYSGALGYFDIWGPGTLVTVSF VL: GYDMTQTPASVSAAVGGTVTINCQASENIYSTLAWYQQKPGQPPKVLIYDAFDLASGVPSRFKGSGSGTEYTLTISGVQSDDAATYYCQQGYSGTNVDNAFGGGTEVVVK = 0.03 µg/mL

Turning now to a further record.
Using the record for chimeric anti-5T4 monoclonal antibody 835 (antibody, human IgG1, V domains shown) VH: QSVEESGGRLVTPGTPLTLTCTVSGIDLSSGAMGWVRQAPGKGLEWIGLISSSPITYYANWARGRFTISKTSTTVDLKITSPTTADTATYFCARGYDDYGEIWFNIWGPGTLVTVSL VL: AIEMTQSPPSLSASVGETVRIRCLAGEDIYSSISWYQQKPGKPPTLLIYGASNLESGVPPRFSGSGSGTDYTLTIGGVQAEDAATYYCLGGWSYSSSLTFGAGTKVEIK , report its EC50. 0.08 µg/mL

Origin of values: patent US20210317231A1
